- assay.target: human progesterone receptor B (Homo sapiens)
- Sequence (P06401 1-933): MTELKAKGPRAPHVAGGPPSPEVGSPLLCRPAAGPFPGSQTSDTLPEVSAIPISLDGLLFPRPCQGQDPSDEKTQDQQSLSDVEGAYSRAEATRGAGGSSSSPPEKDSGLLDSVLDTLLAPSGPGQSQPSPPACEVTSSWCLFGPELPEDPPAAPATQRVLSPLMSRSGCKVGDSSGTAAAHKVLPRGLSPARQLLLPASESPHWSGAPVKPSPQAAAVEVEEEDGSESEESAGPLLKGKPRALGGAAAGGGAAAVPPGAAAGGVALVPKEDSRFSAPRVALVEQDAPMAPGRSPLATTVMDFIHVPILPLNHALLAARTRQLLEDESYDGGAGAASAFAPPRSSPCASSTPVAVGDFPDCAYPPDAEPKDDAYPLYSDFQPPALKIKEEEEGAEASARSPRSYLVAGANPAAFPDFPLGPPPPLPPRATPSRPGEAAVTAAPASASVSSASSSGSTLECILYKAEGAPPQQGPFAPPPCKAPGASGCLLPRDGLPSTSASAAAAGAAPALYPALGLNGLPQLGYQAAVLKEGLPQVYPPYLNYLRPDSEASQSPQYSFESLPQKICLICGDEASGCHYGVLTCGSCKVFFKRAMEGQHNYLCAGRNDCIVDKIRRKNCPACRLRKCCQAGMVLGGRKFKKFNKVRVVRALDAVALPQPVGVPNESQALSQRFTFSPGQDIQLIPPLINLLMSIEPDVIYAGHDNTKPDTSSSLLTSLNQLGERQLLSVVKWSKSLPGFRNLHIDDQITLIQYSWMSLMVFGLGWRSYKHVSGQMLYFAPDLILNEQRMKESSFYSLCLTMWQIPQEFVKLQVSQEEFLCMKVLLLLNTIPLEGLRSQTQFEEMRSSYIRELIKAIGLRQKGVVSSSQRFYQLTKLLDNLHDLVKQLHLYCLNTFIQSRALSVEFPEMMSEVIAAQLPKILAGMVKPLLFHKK
- assay.text: Progesterone receptor-antagonistic action in stably transfected SK-N-MC cells with MMTV-LUC reporter (PR-B)
- assay.setup: antagonistic potency against 0.1 nmol/l promegestone, 24 hours, luciferase
pIC50: −log10 of the molar value.
recorded.metric: pIC50

| compound | assay.target | observed.measurement |
| --- | --- | --- |
| C[C@]12C[C@H](c3ccc(/C=C/CO)cc3)C3=C4CCC(=O)C=C4CC[C@H]3[C@@H]1CC[C@@]2(O)C(F)(F)C(F)(F)F [Example 2] | human progesterone receptor B (Homo sapiens) | 9.60 |
| C[C@]12C[C@H](c3cccc(/C=C/c4ccncc4)c3)C3=C4CCC(=O)C=C4CC[C@H]3[C@@H]1CC[C@@]2(O)C(F)(F)C(F)(F)F [Example 23] | human progesterone receptor B (Homo sapiens) | 9.70 |
| COC(=O)C(C/C=C/c1ccc([C@H]2C[C@@]3(C)[C@@H](CC[C@@]3(O)C(F)(F)C(F)(F)F)[C@@H]3CCC4=CC(=O)CCC4=C32)cc1)C(=O)OC [Example 4] | human progesterone receptor B (Homo sapiens) | 8.96 |
| C=CC=Cc1ccc([C@H]2C[C@@]3(C)C(CC[C@@]3(O)C(F)(F)C(F)(F)F)C3CCC4=CC(=O)CCC4=C32)cc1 (mixture of isomers) [Example 18] | human progesterone receptor B (Homo sapiens) | 10.70 |
| Cc1nc2cc(/C=C/c3ccc([C@H]4C[C@@]5(C)[C@@H](CC[C@@]5(O)C(F)(F)C(F)(F)F)[C@@H]5CCC6=CC(=O)CCC6=C54)cc3)ccc2s1 [Example 10] | human progesterone receptor B (Homo sapiens) | 9.07 |

A: CSc1ccc(/C=C/c2ccc([C@H]3C[C@@]4(C)[C@@H](CC[C@@]4(O)C(F)(F)C(F)(F)F)[C@@H]4CCC5=CC(=O)CCC5=C43)cc2)cc1 [Example 33]
B: C[C@]12C[C@H](c3ccc(/C=C/CNC(=O)Nc4ccc(F)cc4)cc3)C3=C4CCC(=O)C=C4CC[C@H]3[C@@H]1CC[C@@]2(O)C(F)(F)C(F)(F)F [Example 44]
C: C=C(C)c1ccc([C@H]2C[C@@]3(C)[C@@H](CC[C@@]3(O)C(F)(F)C(F)(F)F)[C@@H]3CCC4=CC(=O)CCC4=C32)cc1 [Example 11]
Query: Put the entries in order of pIC50, starting with the largest number. Answer by listing the labels in the requested order.
Result: C, B, A

---

- assay.target: human progesterone receptor A (Homo sapiens, UniProt P06401)
- assay.text: Progesterone receptor-antagonistic action in stably transfected SK-N-MC cells with MMTV-LUC reporter (PR-A)
- assay.setup: antagonistic potency against 0.1 nmol/l promegestone, 24 hours, luciferase
recorded.metric: IC50 (nM)

| molecule | assay.target | IC50 [nM] |
| --- | --- | --- |
| Cc1nc(/C=C/c2cccc([C@H]3C[C@@]4(C)[C@@H](CC[C@@]4(O)C(F)(F)C(F)(F)F)[C@@H]4CCC5=CC(=O)CCC5=C43)c2)cs1 | human progesterone receptor A (Homo sapiens, UniProt P06401) | 1 |
| CC(C)(C)c1ccc(NC(=O)NC/C=C/c2ccc([C@H]3C[C@@]4(C)C(CC[C@@]4(O)C(F)(F)C(F)(F)F)C4CCC5=CC(=O)CCC5=C43)cc2)cc1 (stereo partly drawn) | human progesterone receptor A (Homo sapiens, UniProt P06401) | 0.8 |
| CCOC(=O)CNC(=O)NC/C=C/c1ccc([C@H]2C[C@@]3(C)C(CC[C@@]3(O)C(F)(F)C(F)(F)F)C3CCC4=CC(=O)CCC4=C32)cc1 (stereo partly drawn) | human progesterone receptor A (Homo sapiens, UniProt P06401) | 0.1 |
| C[C@]12C[C@H](c3ccc(/C=C/CNC(=O)NCCC(=O)O)cc3)C3=C4CCC(=O)C=C4CCC3C1CC[C@@]2(O)C(F)(F)C(F)(F)F (stereo partly drawn) | human progesterone receptor A (Homo sapiens, UniProt P06401) | 8 |
| CC(=O)/C=C/c1ccc([C@H]2C[C@@]3(C)[C@@H](CC[C@@]3(O)C(F)(F)C(F)(F)F)[C@@H]3CCC4=CC(=O)CCC4=C32)cc1 | human progesterone receptor A (Homo sapiens, UniProt P06401) | 0.1 |

A: CCOC(=O)/C=C/C=C/c1ccc([C@H]2C[C@@]3(C)[C@@H](CC[C@@]3(O)C(F)(F)C(F)(F)F)[C@@H]3CCC4=CC(=O)CCC4=C32)cc1
B: C[C@]12C[C@H](c3ccc(/C=C/CC(C(=O)O)C(=O)O)cc3)C3=C4CCC(=O)C=C4CC[C@H]3[C@@H]1CC[C@@]2(O)C(F)(F)C(F)(F)F
C: CC(C)(C)NC(=O)NC/C=C/c1ccc([C@H]2C[C@@]3(C)C(CC[C@@]3(O)C(F)(F)C(F)(F)F)C3CCC4=CC(=O)CCC4=C32)cc1 (stereo partly drawn)
Query: Could you please order the items by IC50, going from the lowest number to the highest? Kindly provide the labels arranged according to the requested ordering.
Result: A, C, B

---

- assay.target: human progesterone receptor B (Homo sapiens, UniProt P06401)
- Construct: expressed in transfected cells; host or cells: SK-N-MC human neuroblastoma cells, stably transfected with pRChPR-B-neo and pMMTV-LUC
- assay.text: Progesterone receptor-antagonistic action in stably transfected SK-N-MC cells with MMTV-LUC reporter (PR-B)
- Format: cell-based
- assay.setup: antagonistic potency against 0.1 nmol/l promegestone, 24 hours, luciferase
pIC50: −log10 of the molar value.
recorded.metric: pIC50

Solved cases below.
| compound | pIC50 |
| --- | --- |
| C=C(C)c1cccc([C@H]2C[C@@]3(C)[C@@H](CC[C@@]3(O)C(F)(F)C(F)(F)F)[C@@H]3CCC4=CC(=O)CCC4=C32)c1 | 7.96 |
| CCOC(=O)c1ccc(NC(=O)NC/C=C/c2ccc([C@H]3C[C@@]4(C)[C@@H](CC[C@@]4(O)C(F)(F)C(F)(F)F)[C@@H]4CCC5=CC(=O)CCC5=C43)cc2)cc1 | 10.05 |
| COC(=O)c1ccc(/C=C/c2ccc([C@H]3C[C@@]4(C)[C@@H](CC[C@@]4(O)C(F)(F)C(F)(F)F)[C@@H]4CCC5=CC(=O)CCC5=C43)cc2)cc1 | 10.00 |

a: CC(C)(C)NC(=O)NC/C=C/c1ccc([C@H]2C[C@@]3(C)C(CC[C@@]3(O)C(F)(F)C(F)(F)F)C3CCC4=CC(=O)CCC4=C32)cc1 (stereo partly drawn)
b: C[C@]12C[C@H](c3ccc(/C=N/OCc4ccc(Cl)c(Cl)c4)cc3)C3=C4CCC(=O)C=C4CC[C@H]3[C@@H]1CC[C@@]2(O)C(F)(F)C(F)(F)F
Query: // returns a or b , whichever has the lower pIC50 Lab note: record the label of whichever item you select.
Result: b
(b: 9.30, a: 10.00)
